Data origin, for the record: ChEMBL document CHEMBL4396872

TEST_NAME: AUC (0 to t) in Sprague-Dawley rat at 1 mg/kg, po measured up to 24 hrs by LC-MS/MS analysis
Format: ADME, organism-based
Set-up: time < 24 hr, dose 1 mg/kg, route oral
ASSAY_SETUP: in vivo
READOUT_NAME: AUCt (ng·h/mL)
Numbers only; they are read as ng·h/mL.

Query block: Dear colleague, I am looking for the recorded AUCt of the following molecule: `CCCOc1ccc(NC(=O)CN2CCN(C)CC2)cc1-c1nc(CC)c(CC)c(=O)[nH]1`
Result block: 268

====

TEST_NAME: AUC (0 to infinity) in Beagle dog at 0.5 mg/kg, iv measured up to 24 hrs by LC-MS/MS analysis
Assay type: ADME, organism-based, Canis lupus familiaris
Parameters: dose 0.5 mg/kg, time infinity, route intravenous
ASSAY_SETUP: in vivo
READOUT_NAME: AUC (ng·h/mL)
Could you give me the number in ng·h/mL? Just the number is fine.

Query block: Dear colleague, I am looking for the recorded AUC of the following compound: `CCCOc1ccc(NC(=O)CN2CCN(C)CC2)cc1-c1nc(CC)c(CC)c(=O)[nH]1`
Result block: 773

====

TEST_NAME: Terminal half life in human at 5 mg, po administered once daily measured under phase 1 clinical trials
Type: ADME, organism-based
ASSAY_SETUP: in vivo, read-out: beta t1/2 (converted)
READOUT_NAME: half-life

Query block: Requested read-out: half-life. Entry: `CCCOc1ccc(NC(=O)CN2CCN(C)CC2)cc1-c1nc(CC)c(CC)c(=O)[nH]1`
Result block: 10.9 h

====

TEST_NAME: Metabolic stability in human liver microsomes assessed as parent compound remaining at 1 uM in presence of NADPH after 30 mins by LC-MS/MS analysis
Type: ADME, Microsome
ASSAY_SETUP: read-out: Stability
# remaining at 0.5 h, 1 µM annotations
Provide the reading as a plain figure in %.

CCCOc1ccc(S(=O)(=O)NCCC(=O)O)cc1-c1nc(CC)c(CC)c(=O)[nH]1 | 100
CCCOc1ccc(NS(C)(=O)=O)cc1-c1nc(CC)c(CC)c(=O)[nH]1 | 27
CCCOc1ccc(S(=O)(=O)N2CCN(C)CC2)cc1-c1nc(CC)c(CC)c(=O)[nH]1 | 29

Query block: Returns the measured remaining at 0.5 h, 1 µM for the input compound. Input: `CCCOc1ccc(NC(=O)CN2CCN(C)CC2)cc1-c1nc(CC)c(CC)c(=O)[nH]1`
Result block: 91

====

TARGET_OR_SYSTEM: cAMP and cAMP-inhibited cGMP 3',5'-cyclic phosphodiesterase 10A (Homo sapiens)
Sequence (Q9Y233 whole entry): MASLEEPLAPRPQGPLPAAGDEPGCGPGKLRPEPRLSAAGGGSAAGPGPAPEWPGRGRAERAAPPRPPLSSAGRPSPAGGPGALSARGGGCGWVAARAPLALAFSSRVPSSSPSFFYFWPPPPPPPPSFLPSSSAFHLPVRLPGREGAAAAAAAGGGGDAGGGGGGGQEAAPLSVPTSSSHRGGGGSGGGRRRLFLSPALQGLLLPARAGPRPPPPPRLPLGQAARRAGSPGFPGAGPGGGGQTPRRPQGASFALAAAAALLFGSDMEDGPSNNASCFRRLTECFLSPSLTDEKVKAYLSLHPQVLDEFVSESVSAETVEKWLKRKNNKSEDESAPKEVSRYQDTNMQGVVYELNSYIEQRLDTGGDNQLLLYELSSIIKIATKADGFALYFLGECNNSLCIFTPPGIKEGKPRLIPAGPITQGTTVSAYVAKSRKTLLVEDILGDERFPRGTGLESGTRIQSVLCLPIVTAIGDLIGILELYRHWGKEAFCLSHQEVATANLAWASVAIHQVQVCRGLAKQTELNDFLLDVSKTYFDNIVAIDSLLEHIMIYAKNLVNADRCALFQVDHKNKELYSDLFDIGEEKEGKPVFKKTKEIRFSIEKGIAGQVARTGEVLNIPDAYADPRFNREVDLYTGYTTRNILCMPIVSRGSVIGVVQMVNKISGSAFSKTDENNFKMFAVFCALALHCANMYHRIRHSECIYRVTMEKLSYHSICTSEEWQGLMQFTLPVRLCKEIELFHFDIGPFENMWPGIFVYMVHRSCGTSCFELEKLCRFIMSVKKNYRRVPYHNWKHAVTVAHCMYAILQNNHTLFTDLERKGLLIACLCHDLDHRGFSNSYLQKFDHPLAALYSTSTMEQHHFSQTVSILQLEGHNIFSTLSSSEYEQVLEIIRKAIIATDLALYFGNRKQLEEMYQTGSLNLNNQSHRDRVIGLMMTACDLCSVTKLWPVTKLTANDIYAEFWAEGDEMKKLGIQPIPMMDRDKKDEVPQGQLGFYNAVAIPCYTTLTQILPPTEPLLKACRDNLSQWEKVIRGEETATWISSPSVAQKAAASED
pIC50: −log10 of the molar value.
READOUT_NAME: pIC50

Query block: // lookup pIC50 for `CN1CC(=O)N2[C@H](c3ccc4c(c3)OCO4)c3[nH]c4ccccc4c3C[C@@H]2C1=O`
Result block: < 5.00

====

TEST_NAME: AUC (0 to t) in Beagle dog at 0.5 mg/kg, iv measured up to 24 hrs by LC-MS/MS analysis
Type: ADME, organism-based, Canis lupus familiaris
Set-up: time < 24 hr, dose 0.5 mg/kg, route intravenous
ASSAY_SETUP: in vivo
READOUT_NAME: AUCt (ng·h/mL)
Write the value in ng·h/mL as a bare number.

Query block: Tell me the measured AUCt of `CCCOc1ccc(NC(=O)CN2CCN(C)CC2)cc1-c1nc(CC)c(CC)c(=O)[nH]1` , please.
Result block: 752
